- Tested on: Escherichia coli TOP10
- Assay protocol: shrunken log2 fold change of peptide-encoding DNA abundance (4.5 h post-induction vs induction); higher = less antimicrobial activity (less host growth inhibition)
- Experimental context: time post-induction: 4.5 h; library: site-saturation at positions 5, 18, 19, 20
Below, each entry is listed alongside its reported shrunken log2 fold change.
Please state the value as a number alone, without comment.

Before answering, review these 3 worked examples.
[
  {
    "Sequence text": "RRIRMRPPRLPRPRPRPCFEPRP",
    "Measured on": "Escherichia coli TOP10",
    "shrunken log2 fold change": 0.286
  },
  {
    "Sequence text": "RRIRCRPPRLPRPRPRPQRKPRP",
    "Measured on": "Escherichia coli TOP10",
    "shrunken log2 fold change": 0.203
  },
  {
    "Sequence text": "RRIRPRPPRLPRPRPRPNGKPRP",
    "Measured on": "Escherichia coli TOP10",
    "shrunken log2 fold change": -0.257
  }
]

# evaluate next
[Q] Value lookup for shrunken log2 fold change; key = `RRIRGRPPRLPRPRPRPNNHPRP`
[A] -0.15

###

- Test system: Escherichia coli TOP10
- Assay protocol: shrunken log2 fold change of peptide-encoding DNA abundance (4.5 h post-induction vs induction); higher = less antimicrobial activity (less host growth inhibition)
- Experimental context: time post-induction: 4.5 h; library: site-saturation at positions 5, 18, 19, 20
Measured endpoint: shrunken log2 fold change
Please state the value as a number alone, without comment.

Before answering, review these 3 worked examples.
[
  {
    "Sequence text": "RRIRRRPPRLPRPRPRPRTDPRP",
    "shrunken log2 fold change": 0.438
  },
  {
    "Sequence text": "RRIRCRPPRLPRPRPRPMETPRP",
    "shrunken log2 fold change": -0.0136
  },
  {
    "Sequence text": "RRIRGRPPRLPRPRPRPPLYPRP",
    "shrunken log2 fold change": 0.459
  }
]

[Q] Value lookup for shrunken log2 fold change; key = `RRIRPRPPRLPRPRPRPDRCPRP`
[A] 0.584

###

- Tested on: Escherichia coli TOP10
- Assay protocol: shrunken log2 fold change of peptide-encoding DNA abundance (4.5 h post-induction vs induction); higher = less antimicrobial activity (less host growth inhibition)
- Experimental context: time post-induction: 4.5 h; library: site-saturation at positions 5, 18, 19, 20
Measured endpoint: shrunken log2 fold change
Please state the value as a number alone, without comment.

[
  {
    "Sequence text": "RRIRARPPRLPRPRPRPIDMPRP",
    "Measured on": "Escherichia coli TOP10",
    "shrunken log2 fold change": -0.0819
  },
  {
    "Sequence text": "RRIRWRPPRLPRPRPRPPYFPRP",
    "Measured on": "Escherichia coli TOP10",
    "shrunken log2 fold change": -0.0123
  }
]

# evaluate next
[Q] Value lookup for shrunken log2 fold change; key = `RRIRLRPPRLPRPRPRPSTMPRP`
[A] -0.407

###

- System: Escherichia coli TOP10;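 also: peptides expressed intracellularly from a pBAD plasmid library in pooled LB shake-flask culture, induced with 0.3% L-arabinose, DNA abundance read by NGS, three biological replicates, DESeq2 with apeglm shrinkage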
- Assay protocol: shrunken log2 fold change of peptide-encoding DNA abundance (4.5 h post-induction vs induction); higher = less antimicrobial activity (less host growth inhibition)
- Experimental context: time post-induction: 4.5 h; library: site-saturation at positions 5, 18, 19, 20
Below, each entry is listed alongside its reported shrunken log2 fold change.
Please state the value as a number alone, without comment.

Before answering, review these 5 worked examples.
[
  {
    "Sequence text": "RRIRIRPPRLPRPRPRPLCQPRP",
    "Result number": 0.127
  },
  {
    "Sequence text": "RRIRGRPPRLPRPRPRPTENPRP",
    "Result number": 0.682
  },
  {
    "Sequence text": "RRIRHRPPRLPRPRPRPFMDPRP",
    "Result number": -0.436
  },
  {
    "Sequence text": "RRIRNRPPRLPRPRPRPRYFPRP",
    "Result number": -0.342
  },
  {
    "Sequence text": "RRIRPRPPRLPRPRPRPHYWPRP",
    "Result number": -0.41
  }
]

[Q] Value lookup for shrunken log2 fold change; key = `RRIRPRPPRLPRPRPRPVYPPRP`
[A] 3.41

[Q] Also, `RRIRFRPPRLPRPRPRPTIRPRP` please.
[A] -0.41

[Q] Also, `RRIRSRPPRLPRPRPRPDRYPRP` please.
[A] -0.172
